Tested on: E. coli clinical strain E10
Assay: microbe, parasite or virus in culture
Conditions: Escherichia coli, 18 h
ENDPOINT_NAME: MIC

stdin: Please give the measured MIC for this compound: CO/N=C(\C(=O)N[C@@H]1C(=O)N2C(C(=O)[O-])=C(C[N+]3(C)CCCC3)CS[C@H]12)c1csc(N)n1 [FEP, cefepime]
stdout: 16 µg/mL

stdin: Here is the next compound: C[C@H]1COc2c(N3CCN(C)CC3)c(F)cc3c(=O)c(C(=O)O)cn1c23 [LEV, levofloxacin]
stdout: ≤ 0.5 µg/mL

stdin: Here is the next compound: CN(C)[C@@H]1C(O)=C(C(N)=O)C(=O)[C@@]2(O)C(O)=C3C(=O)c4c(O)cccc4[C@@](C)(O)[C@H]3C[C@@H]12 [TET, tetracycline]
stdout: ≤ 0.5 µg/mL

stdin: Here is the next compound: C[C@@H](O)[C@H]1C(=O)N2C(C(=O)O)=C(SCCN=CN)C[C@H]12 [IPM, imipenem]
stdout: ≤ 1 µg/mL

---

Test system: E. coli clinical strain E09
Assay: microbe, parasite or virus in culture
Details: strain E09
ENDPOINT_NAME: susceptibility category (S/I/R) given with the MIC

compound="CO/N=C(\\C(=O)N[C@@H]1C(=O)N2C(C(=O)[O-])=C(C[N+]3(C)CCCC3)CS[C@H]12)c1csc(N)n1 [FEP, cefepime]" endpoint_value=S
compound=CN(C)[C@@H]1C(O)=C(C(N)=O)C(=O)[C@@]2(O)C(O)=C3C(=O)c4c(O)cccc4[C@@](C)(O)[C@H]3C[C@@H]12 endpoint_value=R
compound=C[C@@H](O)[C@H]1C(=O)N2C(C(=O)O)=C(SCCN=CN)C[C@H]12 endpoint_value=S
compound=C[C@H]1COc2c(N3CCN(C)CC3)c(F)cc3c(=O)c(C(=O)O)cn1c23 endpoint_value=R

---

System: E. coli clinical strain E03
Assay: microbe, parasite or virus in culture
Conditions: Escherichia coli, 18 h
ENDPOINT_NAME: MIC (µg/mL)
Use µg/mL as the unit, but write only the number.

stdin: Please give the measured MIC for this compound: CO/N=C(\C(=O)N[C@@H]1C(=O)N2C(C(=O)[O-])=C(C[N+]3(C)CCCC3)CS[C@H]12)c1csc(N)n1 [FEP, cefepime]
stdout: 16

stdin: Here is the next compound: C[C@H]1COc2c(N3CCN(C)CC3)c(F)cc3c(=O)c(C(=O)O)cn1c23
stdout: 8

---

Tested on: E. coli clinical strain E07
Experiment: microbe, parasite or virus in culture
Conditions: strain E07
ENDPOINT_NAME: susceptibility category (S/I/R) given with the MIC

molecule="C[C@H]1COc2c(N3CCN(C)CC3)c(F)cc3c(=O)c(C(=O)O)cn1c23 [LEV, levofloxacin]" endpoint_value=S
molecule="C[C@@H](O)[C@H]1C(=O)N2C(C(=O)O)=C(SCCN=CN)C[C@H]12 [IPM, imipenem]" endpoint_value=S
molecule="CN(C)[C@@H]1C(O)=C(C(N)=O)C(=O)[C@@]2(O)C(O)=C3C(=O)c4c(O)cccc4[C@@](C)(O)[C@H]3C[C@@H]12 [TET, tetracycline]" endpoint_value=R
molecule="CO/N=C(\\C(=O)N[C@@H]1C(=O)N2C(C(=O)[O-])=C(C[N+]3(C)CCCC3)CS[C@H]12)c1csc(N)n1 [FEP, cefepime]" endpoint_value=R
